Provenance of the data: paper PMC12464775

TARGET DESC: T1, extracellular domain (ECD) of the human RNF43 protein, biotinylated (human, UniProt Q68DV7 24-197, biotin (EZ-link-NHS-PEG4-biotin), 1–2 biotin molecules per protein)
T1 chain: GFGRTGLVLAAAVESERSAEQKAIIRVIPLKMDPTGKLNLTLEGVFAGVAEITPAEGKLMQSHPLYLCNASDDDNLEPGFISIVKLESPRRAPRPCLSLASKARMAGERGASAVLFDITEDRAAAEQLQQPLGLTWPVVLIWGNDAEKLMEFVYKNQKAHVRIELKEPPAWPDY
PROTOCOL: SPR
Ends that are not written are not given here. * marks the point of attachment. azide = [N-]=[N+]=N*
ASSAY READOUT: pKd
Lab note: report pKd as minus log10 of the concentration in molar units, number only.

See these solved cases before continuing.
azide-EQCTSTQDLCHDYSHVCCWPLDCRWAVKYQWFWDCIG (designed binder, also: dimer via bivalent PEG5 linker (azide–alkyne cycloaddition)) [di-GUR-1.6.12.2]	10.22
azide-EQCTSTQDLCHDYSHVCCWPLDCRWAVKYQWFWDCIG (designed binder, also: hexamer via six-armed PEG linker (azide–alkyne cycloaddition)) [hex-GUR-1.6.12.2]	12.70

As a next step, examine the binder that follows.
Note to self: pKd recorded for HDYSHVCCWPLDCRWAVKYQWFWDCIG [truncated peptide GUR-1.6.12.2 H11-G37] was 8.34
